measurement_target: UniProtKB Q9UQD0
test_protocol: Sodium Influx Assay (Flux), Nav1.6
Type: cell-based
cond: Trex HEK293 cells, ANG2 dye, inactivated state
Structures can show the parent of a compound that is named as a salt.
property_measured: IC50 (nM)

Sample records with IC50:
>>> reported_result("Cc1nc(NCc2c(F)cccc2CN2CCCC2)ccc1S(=O)(=O)Nc1cccc(F)n1 [Example 40, trifluoroacetic acid salt]")
2230
>>> reported_result("Cc1nc(S(=O)(=O)Nc2cscn2)ccc1NCc1ccccc1CN1CCC1 [Example 26, trifluoroacetic acid salt]")
242
>>> reported_result("Cc1cc(S(=O)(=O)Nc2cscn2)cnc1NCc1c(F)cccc1CN(C)C(C)(C)C [Example 13, formic acid salt]")
11300
>>> reported_result("Cc1cc(S(=O)(=O)Nc2cccc(F)n2)sc1NCc1c(F)cccc1CN1CCCC1 [Example 43, trifluoroacetic acid salt]")
2110
>>> reported_result("Cc1nc(S(=O)(=O)Nc2cccc(F)n2)c(F)cc1NCc1ccccc1CN(C)C(C)(C)C [Example 32, trifluoroacetic acid salt]")
272

[A] Cc1nc(S(=O)(=O)Nc2cscn2)ccc1NCc1cccc2ccncc12 [Example 16, formic acid salt]
[B] Cc1nc(S(=O)(=O)Nc2cscn2)ccc1NCc1c(F)cccc1CN(C)C(C)(C)C [Example 6, formic acid salt]
Input line: Select the item with the higher value of IC50 from the options A and B listed. Answer by stating the label of the chosen item.
Output line: A

###

measurement_target: Nav1.1 (Homo sapiens (Human))
test_protocol: Sodium Influx Assay (Flux), Nav1.1
cond: Trex HEK293 cells, ANG2 dye, inactivated state
Counter-ions that a name gives are not always drawn.
property_measured: IC50 (µM)

As a guide, the following entries are already answered.
>>> reported_result("O=S(=O)(Nc1cscn1)c1ccc(NCc2c(F)cccc2CN2CCC2)nc1")
30
>>> reported_result("Cc1nc(NCc2c(F)cccc2CN2CCCC2)ccc1S(=O)(=O)Nc1cccc(F)n1 [Example 40, trifluoroacetic acid salt]")
5.54
>>> reported_result("Cc1nc(S(=O)(=O)Nc2cscn2)c(F)cc1NCc1c(F)cccc1CN(C)C(C)C [Example 35, trifluoroacetic acid salt]")
10.5
>>> reported_result("Cc1nc(S(=O)(=O)Nc2cscn2)ccc1NCc1cccc2ccncc12 [Example 16, formic acid salt]")
30
>>> reported_result("Cc1nc(S(=O)(=O)Nc2cccc(F)n2)c(F)cc1NCc1ccccc1CN(C)C(C)(C)C [Example 32, trifluoroacetic acid salt]")
16.7

[P] Cc1nc(S(=O)(=O)Nc2cscn2)ccc1NCc1c(F)cccc1CN(C)CC1CC1 [Example 15, formic acid salt]
[Q] Cc1nc(S(=O)(=O)Nc2cscn2)ccc1NCc1c(F)cccc1CN1CC(C)(F)C1
[R] Cc1sc(S(=O)(=O)Nc2cccc(F)n2)cc1NCc1c(F)cccc1Br
[S] O=S(=O)(Nc1cscn1)c1ccc(NCc2c(F)ccc(F)c2CN2CCCC2)n2ccnc12 [Example 44, trifluoroacetic acid salt]
[T] C[C@H](Nc1ncc(S(=O)(=O)Nc2cscn2)cc1Cl)c1cc(Cl)ccc1F
Input line: Ascending by IC50, please. Provide the labels, sequenced as the question asks.
Output line: T, R, Q, S, P

[A] O=S(=O)(Nc1cscn1)c1cc(C(F)F)c(NCc2c(F)cccc2CN2CCCC2)cn1 [Example 17, formic acid salt]
[B] Cc1nc(S(=O)(=O)Nc2cccc(F)n2)ccc1NCc1c(F)cccc1CN1CCCC1 [Example 41, trifluoroacetic acid salt]
Input line: // pick min by IC50: A , B Please indicate the selected item by its label.
Output line: B
(B: 11.1 µM, A: 30 µM)

###

measurement_target: Nav1.6 (Homo sapiens (Human))
test_protocol: Sodium Influx Assay (Flux), Nav1.6
Type: cell-based
cond: Trex HEK293 cells, ANG2 dye, inactivated state
pIC50: −log10 of the molar value. Counter-ions that a name gives are not always drawn.
property_measured: pIC50

Previously resolved entries follow.
>>> reported_result("Cc1nc(S(=O)(=O)Nc2cscn2)c(F)cc1NCc1cccc(C(F)(F)F)c1CN1C2CCC1CC2 [Example 37, trifluoroacetic acid salt]")
5.23
>>> reported_result("Cc1nc(S(=O)(=O)Nc2ccon2)c(F)cc1NCc1ccccc1CN(C)C(C)(C)C [Example 46, trifluoroacetic acid salt]")
5.75

[I] Cc1sc(S(=O)(=O)Nc2cccc(F)n2)cc1NCc1c(F)cccc1Br
[II] Cc1nc(S(=O)(=O)Nc2cscn2)ccc1NCc1c(F)cccc1CN1CC(C)C1
[III] C[C@H](Nc1ncc(S(=O)(=O)Nc2cscn2)cc1Cl)c1cc(Cl)ccc1F
[IV] Cc1nc(S(=O)(=O)Nc2cscn2)ccc1NCc1cccc(F)c1CN1CCC1 [Example 27, trifluoroacetic acid salt]
Input line: Put the items in order so that reported pIC50 rises from first to last. // respond by listing labels in the order requested
Output line: I, III, IV, II
